# method: Apparent permeability across pig LLC-PK1 cells at 1 uM
# Format: ADME, cell-based, Sus scrofa
experimentalEndpoint: Papp at 1 µM (×10⁻⁶ cm/s)

[[record]]
chemsmiles = "Cc1cc(C2CCN(C(=O)[C@@H]3CN(C(C)(C)C)C[C@H]3c3ccc(F)cc3F)CC2)n(-c2ccc(F)c(F)c2)n1"
experimentalendpoint = "Papp at 1 µM"
reportedresult = 28

[[record]]
chemsmiles = "CC(C)(C)N1C[C@@H](C(=O)N2CCC(c3ccnn3-c3ccc(F)c(Cl)c3)CC2)[C@H](c2ccc(F)cc2F)C1"
experimentalendpoint = "Papp at 1 µM"
reportedresult = 28.8

[[record]]
chemsmiles = "Cc1cc(C2CCN(C(=O)[C@@H]3CN(C(C)(C)C)C[C@H]3c3ccc(F)cc3F)CC2)n(-c2cc(Cl)ccc2Cl)n1"
experimentalendpoint = "Papp at 1 µM"
reportedresult = 26.9


----------
# method: Apparent permeability across pig LLC-PK1 cells at 5 uM
# Assay type: ADME, cell-based, Sus scrofa
experimentalEndpoint: Papp at 5 µM (×10⁻⁶ cm/s)
The response must be a number in ×10⁻⁶ cm/s with no trailing unit.

Ask: Give Papp at 5 µM for the following compound: C[C@@H](c1ccc(-c2ccccc2)cc1)[C@H](NC(=O)C(C)(C)N)C(=O)N1CCC[C@H]1c1nc2cc(Cl)c(Cl)cc2[nH]1
Reply: 2.3

----------
# studyTarget: Mus musculus
# method: Ex-vivo inhibition of PrCP in heat inactivated 100% plasma of po dosed mouse by FRET analysis
# Format: functional, organism-based
experimentalEndpoint: Ki (nM)

Previously resolved entries follow.
[[record]]
chemsmiles = "Cc1cc(C2CCN(C(=O)[C@@H]3CN(C(C)(C)C)C[C@H]3c3ccc(F)cc3F)CC2)n(-c2ccc(Cl)cc2F)n1"
studytarget = "Mus musculus"
experimentalendpoint = "Ki"
valueunit = "nM"
reportedresult = 5.5

[[record]]
chemsmiles = "Cc1cc(C2CCN(C(=O)[C@@H]3CNC[C@H]3c3ccc(F)cc3F)CC2)n(-c2ccc(Cl)c(Cl)c2)n1"
studytarget = "Mus musculus"
experimentalendpoint = "Ki"
valueunit = "nM"
reportedresult = 164

[[record]]
chemsmiles = "Cc1cc(C2CCN(C(=O)[C@@H]3CN(C(C)(C)C)C[C@H]3c3ccc(F)cc3F)CC2)n(-c2ccc(Cl)c(Cl)c2)n1"
studytarget = "Mus musculus"
experimentalendpoint = "Ki"
valueunit = "nM"
reportedresult = 18.4

[[record]]
chemsmiles = "Cc1cc(C2CCN(C(=O)[C@@H]3CN(C(C)(C)C)C[C@H]3c3ccc(F)cc3F)CC2)n(-c2ccc(F)cc2F)n1"
studytarget = "Mus musculus"
experimentalendpoint = "Ki"
valueunit = "nM"
reportedresult = 14.5

[[record]]
chemsmiles = "Cc1cc(C2CCN(C(=O)[C@@H]3CNC[C@H]3c3ccc(F)cc3F)CC2)n(-c2cc(Cl)ccc2Cl)n1"
studytarget = "Mus musculus"
experimentalendpoint = "Ki"
valueunit = "nM"
reportedresult = 23


I. Cc1nc(C2CCN(C(=O)[C@@H]3CN(C(C)(C)C)C[C@H]3c3ccc(F)cc3F)CC2)n(-c2ccc(Cl)c(C)c2)n1
II. Cc1cc(C2CCN(C(=O)[C@@H]3CN(C(C)(C)C)C[C@H]3c3ccc(F)cc3F)CC2)n(-c2ccc(F)c(F)c2)n1
Ask: Lab note: check whether I or II shows the higher recorded Ki. Answer by stating the label of the chosen item.
Reply: II
(II: 18.3 nM, I: 1.4 nM)

----------
# method: Ratio of drug level in brain to plasma in C57 mouse at 80 mg/kg, po after 20 hrs by LC/MS analysis
# Format: ADME, organism-based
# Set-up: dose 80 mg/kg, route oral
# conditionLabel: read-out: BPR
experimentalEndpoint: Kp at 20 h
Reply briefly: the number, and no unit.

Ask: Give Kp at 20 h for the following molecule: Cc1cc(C2CCN(C(=O)[C@@H]3CN(C(C)(C)C)C[C@H]3c3ccc(F)cc3F)CC2)n(-c2ccc(F)c(F)c2)n1
Reply: 0.63

----------
# method: Plasma protein binding in 10% mouse plasma assessed as percentage unbound
# Assay type: ADME, cell-free
experimentalEndpoint: fraction unbound

Previously resolved entries follow.
[[record]]
chemsmiles = "Cc1cc(C2CCN(C(=O)[C@@H]3CN(C(C)(C)C)C[C@H]3c3ccc(F)cc3F)CC2)n(-c2cc(Cl)ccc2Cl)n1"
reportedresult = 0.17

[[record]]
chemsmiles = "O=C([C@@H]1CNC[C@H]1c1ccc(F)cc1F)N1CCC(c2ccnn2-c2ccc(F)c(Cl)c2)CC1"
reportedresult = 0.1

[[record]]
chemsmiles = "Cc1nc(C2CCN(C(=O)[C@@H]3CN(C(C)(C)C)C[C@H]3c3ccc(F)cc3F)CC2)n(-c2ccc(F)c(F)c2)n1"
reportedresult = 0.54

[[record]]
chemsmiles = "Cc1cc(C2CCN(C(=O)[C@@H]3CN(C(C)(C)C)C[C@H]3c3ccc(F)cc3F)CC2)n(-c2ccc(Cl)cc2)n1"
reportedresult = 0.17

[[record]]
chemsmiles = "Cc1cc(C2CCN(C(=O)[C@@H]3CNC[C@H]3c3ccc(F)cc3F)CC2)n(-c2cc(Cl)ccc2Cl)n1"
reportedresult = 0.05


a. Cc1nc(C2CCN(C(=O)[C@@H]3CN(C(C)(C)C)C[C@H]3c3ccc(F)cc3F)CC2)n(-c2ccc(Cl)c(C)c2)n1
b. Cc1cc(C2CCN(C(=O)[C@@H]3CN(C(C)(C)C)C[C@H]3c3ccc(F)cc3F)CC2)n(-c2ccc(Cl)c(Cl)c2)n1
Ask: From the items above, decide which of a and b has the lower fraction unbound reading. Answer by stating the label of the chosen item.
Reply: b
(b: 0.019, a: 0.13)

P. Cc1nc(C2CCN(C(=O)[C@@H]3CNC[C@H]3c3ccc(F)cc3F)CC2)n(-c2ccc(Cl)cc2)n1
Q. Cc1cc(C2CCN(C(=O)[C@@H]3CN(C(C)(C)C)C[C@H]3c3ccc(F)cc3F)CC2)n(-c2ccc(Cl)cc2Cl)n1
R. CC(C)(C)N1C[C@@H](C(=O)N2CCC(c3nnnn3-c3ccc(Cl)cc3)CC2)[C@H](c2ccc(F)cc2F)C1
Ask: Ranking field: fraction unbound; order: falling. Give me the labels in the order the question wants.
Reply: R, Q, P

I. Cc1cc(-n2nc(C3CCN(C(=O)[C@@H]4CN(C(C)(C)C)C[C@H]4c4ccc(F)cc4F)CC3)nc2C)ccc1Cl
II. Cc1nc(C2CCN(C(=O)[C@H]3CN(C(C)(C)C)C[C@@H]3c3ccc(F)cc3F)CC2)n(-c2ccc(Cl)c(C)c2)n1
III. Cc1nc(C2CCN(C(=O)[C@@H]3CN(C(C)(C)C)C[C@H]3c3ccc(F)cc3F)CC2)n(-c2ccc(Cl)cc2)n1
Ask: Ranking field: fraction unbound; order: falling. Give me the labels in the order the question wants.
Reply: III, II, I

----------
# method: Volume of distribution in mouse at 0.5 mg/kg, iv and 1 mg/kg, po
# Type: ADME, organism-based
# conditionLabel: in vivo
experimentalEndpoint: Vd (L/kg)

Previously resolved entries follow.
[[record]]
chemsmiles = "Cc1cc(-n2nc(C3CCN(C(=O)[C@@H]4CN(C(C)(C)C)C[C@H]4c4ccc(F)cc4F)CC3)nc2C)ccc1Cl"
reportedresult = 14

[[record]]
chemsmiles = "Cc1cc(C2CCN(C(=O)[C@@H]3CN(C(C)(C)C)C[C@H]3c3ccc(F)cc3F)CC2)n(-c2ccc(Cl)c(C)c2)n1"
reportedresult = 20

[[record]]
chemsmiles = "Cc1cc(C2CCN(C(=O)[C@@H]3CN(C(C)(C)C)C[C@H]3c3ccc(F)cc3F)CC2)n(-c2ccc(Cl)cc2)n1"
reportedresult = 14

[[record]]
chemsmiles = "Cc1cc(C2CCN(C(=O)[C@@H]3CN(C(C)(C)C)C[C@H]3c3ccc(F)cc3F)CC2)n(-c2cc(Cl)ccc2Cl)n1"
reportedresult = 13


I. Cc1cc(C2CCN(C(=O)[C@@H]3CN(C(C)(C)C)C[C@H]3c3ccc(F)cc3F)CC2)n(-c2ccc(F)c(F)c2)n1
II. Cc1cc(C2CCN(C(=O)[C@@H]3CNC[C@H]3c3ccc(F)cc3F)CC2)n(-c2cc(Cl)ccc2Cl)n1
Ask: Lab note: check whether I or II shows the higher recorded Vd. Answer by stating the label of the chosen item.
Reply: II

I. CC(C)(C)N1C[C@@H](C(=O)N2CCC(c3nnnn3-c3ccc(Cl)cc3)CC2)[C@H](c2ccc(F)cc2F)C1
II. O=C([C@@H]1CNC[C@H]1c1ccc(F)cc1F)N1CCC(c2ccnn2-c2ccc(F)c(Cl)c2)CC1
Ask: From the items above, decide which of I and II has the lower Vd reading. Answer by stating the label of the chosen item.
Reply: II
(II: 8 L/kg, I: 17 L/kg)

----------
# method: Metabolic stability in mouse liver microsomes after 30 mins by LC/MS analysis
# Assay type: ADME, Microsome
# conditionLabel: read-out: Stability
experimentalEndpoint: remaining at 0.5 h (%)

[[record]]
chemsmiles = "Cc1cc(C2CCN(C(=O)[C@@H]3CN(C(C)(C)C)C[C@H]3c3ccc(F)cc3F)CC2)n(-c2ccc(C)c(Cl)c2)n1"
valueunit = "%"
reportedresult = 1

[[record]]
chemsmiles = "Cc1nc(C2CCN(C(=O)[C@@H]3CN(C(C)(C)C)C[C@H]3c3ccc(F)cc3F)CC2)n(-c2ccc(Cl)cc2)n1"
valueunit = "%"
reportedresult = 46

[[record]]
chemsmiles = "CC(C)(C)N1C[C@@H](C(=O)N2CCC(c3ccnn3-c3ccc(F)c(Cl)c3)CC2)[C@H](c2ccc(F)cc2F)C1"
valueunit = "%"
reportedresult = 3

[[record]]
chemsmiles = "Cc1nc(C2CCN(C(=O)[C@@H]3CNC[C@H]3c3ccc(F)cc3F)CC2)n(-c2ccc(F)c(Cl)c2)n1"
valueunit = "%"
reportedresult = 57

[[record]]
chemsmiles = "Cc1nc(C2CCN(C(=O)[C@@H]3CNC[C@H]3c3ccc(F)cc3F)CC2)n(-c2ccc(Cl)c(Cl)c2)n1"
valueunit = "%"
reportedresult = 58


a. Cc1cc(C2CCN(C(=O)[C@@H]3CN(C(C)(C)C)C[C@H]3c3ccc(F)cc3F)CC2)n(-c2ccc(F)c(F)c2)n1
b. Cc1nc(C2CCN(C(=O)[C@H]3CN(C(C)(C)C)C[C@@H]3c3ccc(F)cc3F)CC2)n(-c2ccc(Cl)c(C)c2)n1
c. Cc1nc(C2CCN(C(=O)[C@@H]3CNC[C@H]3c3ccc(F)cc3F)CC2)n(-c2ccc(Cl)cc2)n1
d. Cc1cc(-n2nc(C3CCN(C(=O)[C@@H]4CN(C(C)(C)C)C[C@H]4c4ccc(F)cc4F)CC3)nc2C)ccc1Cl
e. CC(C)(C)N1C[C@@H](C(=O)N2CCC(c3nnnn3-c3ccc(Cl)cc3)CC2)[C@H](c2ccc(F)cc2F)C1
Ask: Let's sort these by remaining at 0.5 h, smallest first. Go ahead? Give me the labels in the order the question wants.
Reply: b, e, d, a, c

1. Cc1cc(C2CCN(C(=O)[C@@H]3CN(C(C)(C)C)C[C@H]3c3ccc(F)cc3F)CC2)n(-c2cc(Cl)ccc2F)n1
2. Cc1nc(C2CCN(C(=O)[C@@H]3CNC[C@H]3c3ccc(F)cc3F)CC2)n(-c2cc(Cl)ccc2Cl)n1
Ask: Lab note: check whether 1 or 2 shows the higher recorded remaining at 0.5 h. Answer by stating the label of the chosen item.
Reply: 2

a. Cc1cc(C2CCN(C(=O)[C@@H]3CN(C(C)(C)C)C[C@H]3c3ccc(F)cc3F)CC2)n(-c2ccc(Cl)c(C)c2)n1
b. Cc1nc(C2CCN(C(=O)[C@@H]3CN(C(C)(C)C)C[C@H]3c3ccc(F)cc3F)CC2)n(-c2ccc(F)c(F)c2)n1
Ask: Lab note: check whether a or b shows the higher recorded remaining at 0.5 h. Answer by stating the label of the chosen item.
Reply: b
(b: 47%, a: 18%)
